This collection of values is drawn from paper PMC2756588.

assay system: Myo3, P36006
measurement protocol: SPOT array
reported conditions: median of control spots 468
parameter measured: SPOT intensity

Known results for binders:
>  <binder>
LKPPIGRPPKFPKSP

>  <SPOT intensity>
397

$$$$
>  <binder>
ATKSASPTLPTRRSR

>  <SPOT intensity>
12

$$$$
>  <binder>
PALPSLPPPPLLNVD

>  <SPOT intensity>
598

$$$$
>  <binder>
NLKKRPPTAPQRKIS

>  <SPOT intensity>
20

$$$$
>  <binder>
SRQAIPPPVPNRPGG

>  <SPOT intensity>
63

$$$$
>  <binder>
GDHPKGPPPPPPPDE

>  <SPOT intensity>
371

$$$$

Next item in the queue.
Q: Entry PLQSKIPMLPSRRTM has what SPOT intensity?
A: 102
